Assay: Randomized crossover quantitative trial: plasma pharmacokinetics of nine ingredients after rikkunshito 2.5, 5.0 or 7.5 g
Conditions: human, plasma, po, 2.5 g, t 1/2, rikkunshito 2.5 g single oral, n = 21; geometric mean (95% CI)
measure_name: half-life (h)
The figure you give is taken to be in h; do not add the unit.

COc1ccc(-c2oc3c(OC)c(OC)c(OC)c(OC)c3c(=O)c2OC)cc1OC = 1.92

In the following, a different compound is considered.
Can you share its half-life? I mean this compound: O=C(O)/C=C/C#CC#C/C=C/c1ccco1
0.58

====

Experiment: Stability of ingredients in gastric pH solution (pH 1.2, 37°C)
Assay type: physicochemical
Conditions: rikkunshito in acidic solution (pH 1.2) at 37°C, 2 h
measure_name: Stability in gastric pH solution, Quantitative value (ng/mL)
Write the answer as a number in ng/mL, unit excluded.

Use these answered entries as a reference point.
CC1(C)CC[C@]2(C(=O)O)CC[C@]3(C)C(=CC[C@@H]4[C@@]5(C)CC[C@H](O)C(C)(C)[C@@H]5CC[C@]43C)[C@@H]2C1 [Oleanolic acid] = 3.28
CC(C)=CCC[C@](C)(O)[C@H]1CC[C@]2(C)[C@@H]1[C@H](O)C[C@@H]1[C@@]3(C)CC[C@H](O)C(C)(C)[C@@H]3[C@@H](O[C@@H]3O[C@H](CO)[C@@H](O)[C@H](O)[C@H]3O[C@@H]3O[C@@H](C)[C@H](O)[C@@H](O)[C@H]3O)C[C@]12C [ginsenoside Rg2, Ginsenoside Rg2] = 126
CCCCCCCCC[C@H](O)CC(=O)CCc1ccc(O)c(OC)c1 [[10]-gingerol, [10]-Gingerol] = 7.62
CCCCCCC/C=C/C(=O)CCc1ccc(O)c(OC)c1 [[8]-Shogaol, [8]-Shogaol] = 1.83
CC(C)=CCC[C@](C)(O)[C@H]1CC[C@]2(C)[C@@H]1[C@H](O)C[C@@H]1[C@@]3(C)CC[C@H](O)C(C)(C)[C@@H]3[C@@H](O[C@@H]3O[C@H](CO)[C@@H](O)[C@H](O)[C@H]3O[C@@H]3O[C@H](CO)[C@@H](O)[C@H](O)[C@H]3O)C[C@]12C [Ginsenoside Rf] = 113
C=C(CC[C@@H](C(=O)O)[C@H]1[C@H](O)C[C@@]2(C)C3=C(CC[C@]12C)[C@@]1(C)CC[C@H](OC(C)=O)C(C)(C)[C@@H]1CC3)C(C)C [Pachymic acid] = 28.3
C/C=C/C#CC#C/C=C/c1ccco1 [Atractylodin] = 8.13
CNCC(O)c1ccc(O)cc1 (stereo not shown) [Synephrine] = 2960
COc1ccc([C@@H]2CC(=O)c3c(O)cc(O[C@@H]4O[C@H](CO[C@@H]5O[C@@H](C)[C@H](O)[C@@H](O)[C@H]5O)[C@@H](O)[C@H](O)[C@H]4O)cc3O2)cc1O [Hesperidin] = 2570

Alright, here's another molecule for you.
Record request: Stability in gastric pH solution, Quantitative value value, item CCCCC/C=C/C(=O)CCc1ccc(O)c(OC)c1 [[6]-Shogaol, [6]-Shogaol]
17.9

====

Assay: Exploratory trial: plasma concentration of rikkunshito ingredients after single oral rikkunshito 7.5 g
Type: in vivo
Settings: in vivo, po
measure_name: Plasma concentration, 1 h

Below are worked cases with known answers.
CC1(C)[C@@H](O[C@@H]2O[C@H](C(=O)O)[C@@H](O)[C@H](O)[C@H]2O)CC[C@]2(C)[C@H]3C(=O)C=C4[C@@H]5C[C@@](C)(C(=O)O)CC[C@]5(C)CC[C@@]4(C)[C@]3(C)CC[C@@H]12 [Glycyrrhetic acid 3-O-glucuronide, Glycyrrhetinic acid 3-O-glucuronide] = 0.0448 ± 0.0895 ng/mL
CC1(C)CC[C@]2(C(=O)O)CC[C@]3(C)C(=CC[C@@H]4[C@@]5(C)CC[C@H](O)C(C)(C)[C@@H]5CC[C@]43C)[C@@H]2C1 = BQL
O=C1C[C@@H](c2ccc(O)cc2)Oc2cc(O)cc(O)c21 = BQL
COc1ccc(-c2cc(=O)c3c(OC)c(OC)c(OC)c(OC)c3o2)cc1 = BQL
CC(C)=CCC[C@](C)(O[C@@H]1O[C@H](CO[C@@H]2O[C@@H](CO)[C@H](O)[C@H]2O)[C@@H](O)[C@H](O)[C@H]1O)[C@H]1CC[C@]2(C)[C@@H]1[C@H](O)C[C@@H]1[C@@]3(C)CC[C@H](O[C@@H]4O[C@H](CO)[C@@H](O)[C@H](O)[C@H]4O[C@@H]4O[C@H](CO)[C@@H](O)[C@H](O)[C@H]4O)C(C)(C)[C@@H]3CC[C@]12C [Ginsenoside Rc] = BQL

Shifting focus to the molecule that follows.
Name the reported Plasma concentration, 1 h value associated with the molecule CC(C)=CCC[C@](C)(O[C@@H]1O[C@H](CO[C@@H]2O[C@H](CO)[C@@H](O)[C@H](O)[C@H]2O)[C@@H](O)[C@H](O)[C@H]1O)[C@H]1CC[C@]2(C)[C@@H]1[C@H](O)C[C@@H]1[C@@]3(C)CC[C@H](O[C@@H]4O[C@H](CO)[C@@H](O)[C@H](O)[C@H]4O[C@@H]4O[C@H](CO)[C@@H](O)[C@H](O)[C@H]4O)C(C)(C)[C@@H]3CC[C@]12C [Ginsenoside Rb1]
BQL
